Hello, the source for this data is patent US20180057465A1, in case you need it.

System: U937 human histiocytic leukemia cell line
Experiment: Off-target effect (cell based assay), reported with assay 1
Details: U-937, Table 1, assay 1, read-out: Off-target effect (cell based assay) IC50
pIC50: −log10 of the molar value.
observed-property: pIC50

See these solved cases before continuing.
Q: Param item = Cc1ccc(Nc2ncc(F)c(N(C)c3ccc(NC(=O)Nc4cc(F)cc(C(F)(F)F)c4)cc3)n2)cc1N1CCCC1=O [Compound 24] ; retrieve measured pIC50.
Ans: 5.91

Q: Similarly, CN(c1ccc(NC(=O)Nc2ccc(OC(F)(F)F)cc2)cc1)c1nc(Nc2cccc(S(N)(=O)=O)c2)ncc1Cl [Compound 2] ?
Ans: 5.68

Q: Also, CNC(=O)c1cc(Nc2nccc(N(C)c3ccc(NC(=O)Nc4ccc(OC(F)(F)F)cc4)cc3)n2)ccc1N1CCOCC1 [Compound 17] please.
Ans: 5.25

[I] Cc1ccc(Nc2nccc(N(C)c3ccc(NC(=O)Nc4ccc(OC(F)(F)F)cc4)cc3)n2)cc1CN1CCN(C)CC1 [Compound 23]
[II] CNC(=O)c1cc(Nc2nccc(N(C)c3ccc(NC(=O)Nc4ccc(Cl)c(C(F)(F)F)c4)cc3)n2)ccc1C [Compound 14]
Q: Between I and II , which one shows the smaller pIC50 number? Indicate your choice by writing its label.
Ans: I
(I: 5.20, II: 5.79)
